Entry source: patent US10966996B2

# Measured target: UniProt:Q9UJM8
# Sequence (Q9UJM8 whole entry): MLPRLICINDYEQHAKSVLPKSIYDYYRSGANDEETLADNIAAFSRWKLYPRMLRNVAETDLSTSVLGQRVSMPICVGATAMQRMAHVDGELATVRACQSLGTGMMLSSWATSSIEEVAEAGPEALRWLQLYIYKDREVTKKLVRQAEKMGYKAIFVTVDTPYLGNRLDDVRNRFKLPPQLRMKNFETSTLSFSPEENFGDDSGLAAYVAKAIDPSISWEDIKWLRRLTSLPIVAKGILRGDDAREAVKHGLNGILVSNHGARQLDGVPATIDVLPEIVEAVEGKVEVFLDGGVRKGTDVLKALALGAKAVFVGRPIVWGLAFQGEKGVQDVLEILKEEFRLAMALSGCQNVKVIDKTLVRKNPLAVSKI
# Assay info: inhibitory activity against glucose oxidase (GOX), enzyme coupling method with glycolic acid substrate
# Assay type: biochemical
# Assay conditions: fitted by Graphpad Prism 5.0; tested 100 μM-0.1 μM
Value kind: pIC50
When answering, recall that pIC50 equals minus log10 of the concentration in mol/L, and write that number alone.

O=C(O)C1O[C@@H](OC2C(O)[C@H](O)C(C(=O)O)O[C@H]2Oc2cc(O)c3c(=O)cc(-c4ccc(O)cc4)oc3c2)C(O)C(O)[C@@H]1O (some centres unmarked) [Compound II]    3.40

Now, please, on to the next compound.
Ask | Lab request: please report pIC50 under test system UniProt:Q9UJM8 for O=C(O)C1O[C@@H](OC2C(O)[C@H](O)C(C(=O)O)O[C@H]2Oc2cc(O)c3c(=O)cc(-c4ccc(O)c(O)c4)oc3c2)C(O)C(O)[C@@H]1O (some centres unmarked) [Compound I]
Reply | 3.30
